// data source = the METLIN SMRT retention time set (Domingo-Almenara et al. 2019)

Experimental Details: gradient 5% acetonitrile 3 min, to 50% in 2 min, to 85% in 15 min, held 3 min, 100 µL/min
Study Conditions: column: Zorbax Extend-C18 2.1 x 50 mm; eluents: water / acetonitrile, 0.1% formic acid
Property Measured: RP-LC retention time (s)

// solved cases for RP-LC retention time follow
>  <Compound>
CC(C)(CO)NC(=O)Cc1ccc(NC(=O)C2(c3ccc(F)cc3)CC2)cc1

>  <RP-LC retention time / s>
734

$$$$
>  <Compound>
CCCn1c(=O)c(N2CCC(NC(=O)Nc3ccc4c(c3)OCCO4)CC2)nc2ccccc21

>  <RP-LC retention time / s>
933

$$$$
>  <Compound>
CN(C)c1cc(-n2cnc(C(=O)NCc3ccc(Cl)cc3)c2)ncn1

>  <RP-LC retention time / s>
825

$$$$
>  <Compound>
CC1CCCCN1S(=O)(=O)c1cc(-c2nnc(C3CCCC3)o2)co1 (stereo unspecified)

>  <RP-LC retention time / s>
1060

$$$$
>  <Compound>
CCOC(=O)c1c(CN2CCOCC2)n(C)c2ccc(O)cc12

>  <RP-LC retention time / s>
578

$$$$

[A] COc1ccc(NC(=O)N2CC=C(c3cn(C(C)C)c4ncccc34)CC2)cc1
[B] COc1ccccc1CNc1ccc(-c2nc(-c3cccc(F)c3)no2)cn1
Input line: Of A and B , which shows the smaller RP-LC retention time value? Answer with the label corresponding to your selection.
Output line: A

[1] Cc1cc(C)c(C)c(S(=O)(=O)Nc2ccc(C(=O)NCc3ccccn3)cc2)c1C
[2] Cc1ccc(C(=O)Nc2nc(-c3ccccc3)cs2)o1
Input line: Hi, I'm comparing 1 with 2 and wondering which one has the bigger number for RP-LC retention time. Any idea? Answer with the label corresponding to your selection.
Output line: 2
(2: 973 s, 1: 630 s)

* * *

Experimental Details: gradient 5% acetonitrile 3 min, to 50% in 2 min, to 85% in 15 min, held 3 min, 100 µL/min
Study Conditions: column: Zorbax Extend-C18 2.1 x 50 mm; eluents: water / acetonitrile, 0.1% formic acid
Property Measured: RP-LC retention time (s)

[1] Cc1cc(-c2nnc(NC(=O)c3cc4cc([N+](=O)[O-])ccc4s3)o2)n(C)n1
[2] CCCn1nnc(NCc2ccc(-c3ccc(Br)cc3Cl)o2)n1
Input line: Hi, I'm comparing 1 with 2 and wondering which one has the bigger number for RP-LC retention time. Any idea? Answer with the label corresponding to your selection.
Output line: 2
(2: 1230 s, 1: 789 s)

[P] COc1cc(OC)cc(-c2noc(CCn3nc(-c4ccc5c(c4)OCO5)ccc3=O)n2)c1
[Q] COc1ccc2nc(NC3=NCN(Cc4cccnc4)CN3)nc(C)c2c1
Input line: Hi, I'm comparing P with Q and wondering which one has the bigger number for RP-LC retention time. Any idea? Answer with the label corresponding to your selection.
Output line: P
(P: 908 s, Q: 560 s)

* * *

Experimental Details: gradient 5% acetonitrile 3 min, to 50% in 2 min, to 85% in 15 min, held 3 min, 100 µL/min
Study Conditions: column: Zorbax Extend-C18 2.1 x 50 mm; eluents: water / acetonitrile, 0.1% formic acid
Property Measured: RP-LC retention time (s)

// solved cases for RP-LC retention time follow
>  <Compound>
CCOc1ccccc1N1CCN(S(=O)(=O)c2nn(C)cc2C(=O)NC2CCCC2)CC1

>  <Property Measured>
RP-LC retention time

>  <Result Number>
1030

$$$$
>  <Compound>
Cc1ccccc1-c1noc(-c2cccnc2N2CCN(Cc3ccccc3)CC2)n1

>  <Property Measured>
RP-LC retention time

>  <Result Number>
803

$$$$
>  <Compound>
COc1ccccc1-c1nc(Cn2nnc(-c3nc(-c4ccc(Cl)cc4)no3)c2C)c(C)o1

>  <Property Measured>
RP-LC retention time

>  <Result Number>
1220

$$$$
>  <Compound>
COc1cccc(-n2c(=O)c(C(=O)Nc3ccc(Cl)cc3)c(O)c3cccnc32)c1

>  <Property Measured>
RP-LC retention time

>  <Result Number>
1340

$$$$
>  <Compound>
Cn1ccnc1C(=O)N1CCCCCCNC(=O)[C@@H]2CCCC[C@@H]21

>  <Property Measured>
RP-LC retention time

>  <Result Number>
627

$$$$

[1] O=C(NC1CCCCCC1)c1nc(Cn2c(=O)oc3ccc(Cl)cc32)no1
[2] CC(C)c1ccc(CNC(=O)C2CCc3nc(N4CCCC4)ncc3C2)cc1 (centres undefined)
Input line: Hi, I'm comparing 1 with 2 and wondering which one has the bigger number for RP-LC retention time. Any idea? Answer with the label corresponding to your selection.
Output line: 1

[A] COc1ccc(-c2ncc3c(n2)CCN(C(=O)c2ccccc2Br)C3)cc1
[B] Nc1nc(Nc2ccccc2)n[nH]1
Input line: Of A and B , which shows the smaller RP-LC retention time value? Answer with the label corresponding to your selection.
Output line: B

[a] COc1ccc(Br)c2c1-c1nc(NC(=O)c3ccccc3F)sc1C2
[b] Nc1cc(C2CCN(C(=O)c3ccc(Cl)cc3)CC2)no1
Input line: Of a and b , which shows the smaller RP-LC retention time value? Answer with the label corresponding to your selection.
Output line: b

[P] CC(C)c1ccc(CNC(=O)CN2CCc3ccccc3C2C(=O)N2CCCC2)cc1 (centres undefined)
[Q] Cc1nn(CC(=O)NCCCN2CCOCC2)c(=O)c2nc(-c3ccccc3)sc12
Input line: Of P and Q , which shows the smaller RP-LC retention time value? Answer with the label corresponding to your selection.
Output line: Q

[I] O=C(Nc1ccc(F)cc1)Nc1nccn(-c2ccc(Br)cc2)c1=O
[II] CC(=O)NCC1(O)CCCC(C)C1 (centres undefined)
Input line: Hi, I'm comparing I with II and wondering which one has the bigger number for RP-LC retention time. Any idea? Answer with the label corresponding to your selection.
Output line: I

[a] CCOc1ccc(-n2c(=O)c3sccc3n(Cc3nc(-c4cccc(OCC)c4)no3)c2=O)cc1
[b] Cc1ccccc1NC(=O)N1CCCN(c2ccc(=O)n(-c3ccccc3)n2)CC1
Input line: Hi, I'm comparing a with b and wondering which one has the bigger number for RP-LC retention time. Any idea? Answer with the label corresponding to your selection.
Output line: a
